# credit: ChEMBL document CHEMBL4513216

Provide the recorded cytotoxicity at 10 µM for the entries that follow.
Assay: Toxicity liver stage against HepG2, at 10uM
Format: cell-based
Parameters: test concentration 10 uM, cell line HepG2-A16-CD81EGFP
Conditions: human, HepG2-A16-CD81EGFP cells; read-out: INHIBITION
Just the number please, in %, no unit attached.

Request: What measured cytotoxicity at 10 µM goes with CC(C)n1cnnc1CN(C)C(=O)c1cc(COc2ccccc2)[nH]n1 ?
Response: 4.58

Request: What measured cytotoxicity at 10 µM goes with Cc1ccc(C(=O)N(Cc2cccc(F)c2)C2CC2)c(=O)[nH]1 ?
Response: -4.86

Request: What measured cytotoxicity at 10 µM goes with CN1CC(=O)N(c2cnn(C)c2)CC12CCN(CC1CC1)C2 (stereo unspecified) ?
Response: 7.6

Request: What measured cytotoxicity at 10 µM goes with CC1c2cccn2CCN1C(=O)CCc1nc(C2CC2)no1 (stereo unspecified) ?
Response: -2.13

Request: What measured cytotoxicity at 10 µM goes with CCCC(=O)N(CCCN1CCOCC1)c1nc2c(F)cccc2s1 ?
Response: -10.7

Request: What measured cytotoxicity at 10 µM goes with CCn1nc2c(cc1=O)CN(c1ncnc3ccsc13)CC2 ?
Response: 49.6

Request: What measured cytotoxicity at 10 µM goes with CCCOCC(=O)N1CCC2(CC1)c1nc[nH]c1CCN2S(C)(=O)=O ?
Response: 3.22

Request: What measured cytotoxicity at 10 µM goes with CNc1cc2c(nn1)CCN(C(=O)c1ccccc1-n1cccn1)C2 ?
Response: 1.91

Request: What measured cytotoxicity at 10 µM goes with O=c1ccc(-c2cccs2)nn1CN1CCN(Cc2ccccc2)CC1 ?
Response: -3.73

Request: What measured cytotoxicity at 10 µM goes with O=C(CCC(=O)N1CCOCC1c1ccccc1)c1cccs1 (stereo unspecified) ?
Response: -1.26

Request: What measured cytotoxicity at 10 µM goes with O=C(NCCc1c[nH]cn1)c1ccc2c(c1)C(=O)N(C1CCCC1)C2=O ?
Response: -6.09
